- target system: T1, random peptide (scrambled pVIc) (synthetic)
- T1 chain: SFRRCGLRQVK
- method: FP; scrambled pVIc; does not slide on DNA
- conditions used: tags: Cy3B at Cys5'; label: 5'-fluorescein (unlabeled with Cy3B-labeled protein)
property name: Kd (nM)
Field: numeric (nM). Do not append units.

Please look at this binder and report its Kd: 12-mer dsDNA (dsDNA) DNA 1: GACGACTAGGAT DNA 2: ATCCTAGTCGTC
646
